assay: in vivo; settings: male, beagle, dog, iv, 0.5 mg/kg
observed_property: concentration at 5 min (ng/mL)
Give the value in ng/mL but do not write ng/mL after it.

Query block: Would you kindly share the measured concentration at 5 min for C=C1C[C@@H]2CC[C@@]34C[C@H]5O[C@H]6[C@@H](O3)[C@H]3O[C@H](CC[C@@H]3O[C@H]6[C@H]5O4)CC(=O)C[C@@H]3[C@@H](OC)[C@@H](C[C@H](O)CN)O[C@H]3C[C@H]3O[C@@H](CC[C@@H]1O2)C[C@@H](C)C3=C [Eribulin, eribulin, reference compound] ?
Result block: 217

====

experiment: Test Example 6 pharmacokinetic study in beagles; details: male, beagle, dog, in vivo, iv, 0.5 mg/kg
observed_property: concentration at 5 min (ng/mL)
Give the value in ng/mL but do not write ng/mL after it.

Query block: Would you kindly share the measured concentration at 5 min for C=C1C[C@@H]2CC[C@@]34C[C@H]5O[C@H]6[C@@H](O3)[C@H]3O[C@H](CC[C@@H]3O[C@H]6[C@H]5O4)CC(=O)C[C@@H]3[C@@H](OC)[C@@H](C[C@@H](CN)OC)O[C@H]3C[C@H]3O[C@@H](CC[C@@H]1O2)C[C@@H](C)C3=C [Compound D-1] ?
Result block: 82.1

Data provenance is patent US20230144203A1.
